Target desc: 5-hydroxytryptamine receptor 2A (Homo sapiens)
Method summary: Agonist activity at 5-HT2A (unknown origin) expressed in HEK293 cells assessed as increase in calcium influx by measuring maximal efficacy incubated for 50 mins by Fluo-4 dye based FLIPR assay relative to control
Type: functional, cell-based
Assay conditions: filed as agonist
Quick reference for Emax among some molecules
Give the quantity in %, number only.

Answered examples (3):
| Mol smiles | Target desc | Emax [%] |
| --- | --- | --- |
| CCN(C)CCc1cccc2cccc(O)c12 | 5-hydroxytryptamine receptor 2A (Homo sapiens) | 68 |
| COc1ccc2cccc(CCN(C)C)c2c1 | 5-hydroxytryptamine receptor 2A (Homo sapiens) | 79 |
| CN(C)CCc1cccc2cccc(O)c12 | 5-hydroxytryptamine receptor 2A (Homo sapiens) | 73 |

The reported Emax value, 5-hydroxytryptamine receptor 2A (Homo sapiens), for `CN(CCc1cccc2cccc(O)c12)C1CC1` reads 64

The reported Emax value, 5-hydroxytryptamine receptor 2A (Homo sapiens), for `CCN(C)CCc1cccc2ccc(OC)cc12` reads 63

The reported Emax value, 5-hydroxytryptamine receptor 2A (Homo sapiens), for `COc1cccc(CNCCc2cccc3ccc(OC)cc23)c1` reads 84

The reported Emax value, 5-hydroxytryptamine receptor 2A (Homo sapiens), for `CC(C)N(C)CCc1cccc2cccc(O)c12` reads 79
